assay: folding stability dG unfold from chymotrypsin proteolysis; higher = more stable
Property: folding stability dG unfold; scope: individual sequences
Unit kcal/mol implied. Number only.

Check out these entries, answers already filled in.
| entry.sequence | folding stability dG unfold, kcal/mol |
| --- | --- |
| GLTVTLDGNSLTVTADAGDKTVTVTAPVFHPEKGLVTVVTVTATREDGALVLHTESRTIRLPPLPPLHPDLS [r1_100_TrMRF] | 4.18 |
| SAGGSAGGSAGGSSYQLKLEAEFLVGDSSGKLYKVKLTITVNEDGSISIDLEVLSVFDVSAGGSAGGSAGGS [r4_496_TrMRF] | 5.46 |
| SAGKKKKKKLKITIEITYNKETNTVTIKITVDGKEITVEVKAKSKEEALLNALKELEKKLNIKIKEVKLSAG [r5_251_TrROS_Hall] | 2.1 |

We next turn to a different sequence, shown below.
Returns the measured folding stability dG unfold for the input sequence. Input: SAGGSAGGSAGGMTTTTVSRSPDGTITTTTTTYVPTPDGSVVPVTTTTTTTPIDPAALSSAGGSAGGSAGGS [r10_991_JUSTAS]
1.39
